Measured Ki, listed per entry for reference.
molecular target: human FAAH (Homo sapiens, UniProt O00519); construct: host or cells: COS-7 cells, transient transfection; 13,000 g membrane fraction solubilised in 1% Triton X-100; assay: Human FAAH biochemical inhibition assay (AMC arachidonoyl amide fluorescence); conditions: Table 2, human FAAH (no asterisk); read-out: Activity (Ki)

Worked examples, 5 compounds total:
compound=COC(=O)c1cc(Oc2cccc(F)c2)ccc1B(O)O result="10 to 100 nM"
compound="OB(O)c1ccc(C(OCc2ccccc2)c2ccccc2)cc1 (centres unmarked)" result="10 to 1000 nM"
compound=OB(O)c1ccc(-c2cnco2)cc1 result="10 to 100 nM"
compound=COC(=O)c1cccc(Oc2ccc(B(O)O)cc2)c1 result="< 10 nM"
compound="O=C(NCc1ccccc1)C(Oc1ccc(B(O)O)cc1)c1ccccc1 (centres unmarked)" result="10 to 1000 nM"

Return reported Ki; argument: Cc1cc(COc2ccc(B(O)O)cc2F)ccc1F
< 10 nM

Return reported Ki; argument: OB(O)c1ccc(Oc2cccc(F)c2)cc1F
< 10 nM

Return reported Ki; argument: OB(O)c1ccc(OCCCOc2ccccc2)cc1
< 10 nM

Return reported Ki; argument: COc1cccc2c(C(O)O)coc12
> 1000 nM

Return reported Ki; argument: OB(O)c1ccc(COCc2cc(Cl)cc(Cl)c2)cc1F
< 10 nM

Return reported Ki; argument: CCCCOc1cccc(CCOc2ccc(B(O)O)c(F)c2)c1
< 10 nM

====

Target: human FAAH (Homo sapiens)
Construct: host or cells: COS-7 cells, transient transfection; 13,000 g membrane fraction solubilised in 1% Triton X-100
Experiment: Human FAAH biochemical inhibition assay (AMC arachidonoyl amide fluorescence)
Experimental: The resulting solution is added into one dish of 30-40% confluent COS-7 cells in a drop-wise manner. The COS-7 cell dish is subsequently incubated for 48 hours. The cells are then harvested. Harvest procedure: Media was aspirated from the dishes and the cells rinsed with 10 mL PBS. […] Human FAAH assay; Experimental Protocol: A 0.1 mg/mL Human FAAH solution is made up in FAAH reaction buffer, and 24 ul pipetted into a 384 well plate. […] The microtiter plate in read in the envision plate reader.
pKi: −log10 of the molar value.
OUTCOME_MEASURE: pKi

Worked examples, 2 compounds total:
compound="NCCOB(c1ccccc1)c1ccccc1 [Compound I-125]" result="< 6.00"
compound="OB(O)c1ccc(-c2ccccc2)cc1 [Compound I-187]" result="7.00 to 8.00"

Let us examine a further case.
Return reported pKi; argument: OB(O)c1ccc(Cl)cc1 [Compound I-82]
6.00 to 8.00

====

Target: human FAAH (Homo sapiens)
Construct: host or cells: COS-7 cells, transient transfection; 13,000 g membrane fraction solubilised in 1% Triton X-100
Assay: Human FAAH biochemical inhibition assay (AMC arachidonoyl amide fluorescence)
Details: Table 2, human FAAH (no asterisk); read-out: Activity (Ki)
Description: The resulting solution is added into one dish of 30-40% confluent COS-7 cells in a drop-wise manner. The COS-7 cell dish is subsequently incubated for 48 hours. The cells are then harvested. Harvest procedure: Media was aspirated from the dishes and the cells rinsed with 10 mL PBS. […] Human FAAH assay; Experimental Protocol: A 0.1 mg/mL Human FAAH solution is made up in FAAH reaction buffer, and 24 ul pipetted into a 384 well plate. […] The microtiter plate in read in the envision plate reader.
OUTCOME_MEASURE: Ki

compound=COc1cc(B(O)O)ccc1Oc1cccc(F)c1 outcome_measure=Ki result="< 10 nM"
compound=Nc1ccc(CCOc2ccc(B(O)O)c(F)c2)cc1 outcome_measure=Ki result="< 10 nM"
compound=O=C(CCc1ccc(B(O)O)c(F)c1)c1ccccc1 outcome_measure=Ki result="< 10 nM"
compound=OB(O)c1ccc(OCCc2cccc(C(F)(F)F)c2)cc1F outcome_measure=Ki result="< 10 nM"
compound=CC1(C)OB(c2ccc(CNc3ccccc3)cc2)OC1(C)C outcome_measure=Ki result="< 10 nM"
compound=CCCc1ccc(-c2ccc(B(O)O)cc2)cc1 outcome_measure=Ki result="10 to 100 nM"

Return reported Ki; argument: Cc1ccc(Oc2ccc(B(O)O)cc2)cc1C
< 10 nM

Return reported Ki; argument: c1ccc(-c2ccc(B3CCCO3)cc2)cc1
10 to 100 nM

Return reported Ki; argument: OB(O)c1ccc2c(c1)CCC(OCc1ccccc1)C2 (centres unmarked)
< 10 nM

Return reported Ki; argument: OB(O)c1ccc(Oc2cccc(F)c2)cc1C(F)(F)F
10 to 100 nM

Return reported Ki; argument: OB(O)c1ccc(Oc2ccc(Cl)c(Cl)c2)cc1
< 10 nM

Return reported Ki; argument: COc1cccc(CCOc2ccc(B(O)O)c(F)c2)c1
< 10 nM

Return reported Ki; argument: OB(O)c1ccc(COc2cccc3ccccc23)cc1
< 10 nM

Return reported Ki; argument: OB(O)c1ccc(CCCc2ccccc2)cc1
< 10 nM

Return reported Ki; argument: OB(O)c1ccc2c(c1)Cc1ccccc1-2
10 to 100 nM

Return reported Ki; argument: OB(O)c1ccc(COCc2cccc3ccccc23)cc1
< 10 nM

Return reported Ki; argument: CN(C)c1ccc(/N=N/c2ccc(B3OC(C)(C)C(C)(C)O3)cc2)cc1
10 to 1000 nM

Return reported Ki; argument: COc1ccc(Oc2ccc(B(O)O)cc2)cc1OC
< 10 nM

Return reported Ki; argument: OB(O)c1ccc2oc(COc3ccccc3)cc2c1
< 10 nM

Return reported Ki; argument: O=C(c1ccc(B(O)O)cc1)N(Cc1ccccc1)c1ccccc1
10 to 100 nM

Return reported Ki; argument: Cc1cc(Oc2cccc(F)c2)ccc1B(O)O
10 to 100 nM

Return reported Ki; argument: OB(O)c1ccc(COc2ccccc2)cc1
< 10 nM

Return reported Ki; argument: OB(O)c1ccc(Oc2cccc(F)c2)cc1
< 10 nM

====

Target: human FAAH (Homo sapiens)
Construct: host or cells: COS-7 cells, transient transfection; 13,000 g membrane fraction solubilised in 1% Triton X-100
Sequence (O00519 1-579): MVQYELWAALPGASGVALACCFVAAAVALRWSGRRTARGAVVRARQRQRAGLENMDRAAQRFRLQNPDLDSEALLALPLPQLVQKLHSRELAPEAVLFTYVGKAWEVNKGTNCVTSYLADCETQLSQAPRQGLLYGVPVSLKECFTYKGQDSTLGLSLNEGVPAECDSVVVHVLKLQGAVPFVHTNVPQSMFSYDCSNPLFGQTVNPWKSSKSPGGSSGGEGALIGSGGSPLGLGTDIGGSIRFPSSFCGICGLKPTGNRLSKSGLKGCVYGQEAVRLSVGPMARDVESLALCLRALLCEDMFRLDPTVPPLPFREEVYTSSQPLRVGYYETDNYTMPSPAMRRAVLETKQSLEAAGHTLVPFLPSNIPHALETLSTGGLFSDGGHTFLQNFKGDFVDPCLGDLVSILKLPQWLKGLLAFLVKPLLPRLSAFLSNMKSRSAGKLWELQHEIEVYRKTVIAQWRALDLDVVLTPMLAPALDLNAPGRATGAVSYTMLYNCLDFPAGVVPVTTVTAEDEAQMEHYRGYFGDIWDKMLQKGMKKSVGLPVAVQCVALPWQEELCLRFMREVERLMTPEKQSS
Experiment: Human FAAH biochemical inhibition assay (AMC arachidonoyl amide fluorescence)
Details: Table 1, human FAAH (no asterisk); read-out: Activity (Ki)
OUTCOME_MEASURE: Ki

Return reported Ki; argument: OB(O)c1cccc(OCc2cccc(Cl)c2)c1 [Compound I-141]
10 to 100 nM

Return reported Ki; argument: OB(O)c1ccccc1F [Compound I-105]
10 to 1000 nM

Return reported Ki; argument: OB(O)c1ccc(OCc2ccccc2)cc1F [Compound I-146]
< 10 nM

Return reported Ki; argument: OB(O)c1ccc(OCc2cccc(Cl)c2)c(Cl)c1 [Compound I-154]
< 10 nM

Return reported Ki; argument: CCCOc1c(Br)cc(F)cc1B(O)O [Compound I-8]
> 1000 nM

Return reported Ki; argument: OB(O)c1ccsc1Cl [Compound I-51]
10 to 1000 nM

Return reported Ki; argument: OB(O)c1ccc2c(c1)OCCO2 [Compound I-98]
10 to 1000 nM

====

target: human FAAH (Homo sapiens, UniProt O00519); construct: host or cells: COS-7 cells, transient transfection; 13,000 g membrane fraction solubilised in 1% Triton X-100; test: Human FAAH biochemical inhibition assay (AMC arachidonoyl amide fluorescence); conditions: Table 2, human FAAH (no asterisk); read-out: Activity (Ki)
OUTCOME_MEASURE: Ki

Worked examples, 5 molecules total:
molecule=Cc1cc(COc2ccc(B(O)O)c(F)c2)ccc1F outcome_measure=Ki result="< 10 nM"
molecule=OB(O)c1ccc(COCc2ccccc2)cc1 outcome_measure=Ki result="< 10 nM"
molecule="O=C1c2ccc(B(O)O)cc2CC1Cc1ccccc1 (centres unmarked)" outcome_measure=Ki result="< 10 nM"
molecule="CC(OCc1ccc(B(O)O)cc1)c1ccccc1 (centres unmarked)" outcome_measure=Ki result="< 10 nM"
molecule=OB(O)c1ccc(-c2nnc(-c3ccco3)o2)cc1 outcome_measure=Ki result="< 10 nM"

Return reported Ki; argument: OB(O)c1ccc(Cn2ccc3ccccc32)cc1
< 10 nM

Return reported Ki; argument: CN(C)CCN(Cc1ccccc1)C(=O)C(Oc1ccc(B(O)O)cc1)c1ccccc1 (centres unmarked)
> 1000 nM

Return reported Ki; argument: OB(O)c1ccc(Oc2cc(Cl)cc(Cl)c2)cc1
10 to 100 nM

Return reported Ki; argument: OB(O)c1ccc(-c2cccc3ccccc23)cc1F
10 to 100 nM

Return reported Ki; argument: OB(O)c1cccc(Oc2ccccc2)c1
< 10 nM

Return reported Ki; argument: CN(C)c1cc(Oc2ccc(B(O)O)cc2)cc(Oc2cccc3ccccc23)c1
> 1000 nM
